system: hiPSC-derived neurons co-cultured with human primary astrocytes in 3D; assay: Ca2+ transient oscillation assay (FDSS), 3D spheroids; format: cell-based; conditions: 3.33 µM; 60 min
result.type: Peak-to-peak interval - 3D Mean

CC(=O)Nc1ccc(O)cc1; 17.4 % change from baseline
CN1CCc2cc3c(cc2[C@H]1[C@@H]1OC(=O)c2c1ccc1c2OCO1)OCO3; 12.1 % change from baseline
C=C(C)[C@H]1CN[C@H](C(=O)O)[C@H]1CC(=O)O; −13.0 % change from baseline
OC(c1cc(C(F)(F)F)nc2c(C(F)(F)F)cccc12)C1CCCCN1 (stereo not shown); 1.7 % change from baseline
CC(NC(C)(C)C)C(=O)c1cccc(Cl)c1 (stereo not shown); 7.8 % change from baseline

List Peak-to-peak interval - 3D Mean for every entry below, keeping the order given.
1. CC[C@@H]1C(=O)OC[C@@H]1Cc1cncn1C
2. CNCCCC12CCC(c3ccccc31)c1ccccc12

**A:**
1. −3.3 % change from baseline
2. 10.6 % change from baseline

###

tested on: hiPSC-derived neurons co-cultured with human primary astrocytes in 2D; experiment: Ca2+ transient oscillation assay (FDSS), 2D co-culture; type: cell-based; conditions: Homo sapiens, 1 h; 0.33 µM; 60 min; read-out: Peak-to-peak interval - 2D Mean
Field: activation at 0.33 µM. Provide a value for each of the molecules that follow.

Observe how each entry below is paired with its result.
CN(C)CCCN1c2ccccc2Sc2ccc(Cl)cc21 [Chlorpromazine]; 48%
NCCCC(=O)O [GABA, gamma-aminobutyric acid]; 29.1%
C[C@]12N[C@H](Cc3ccccc31)c1ccccc12 [MK-801, Dizocilpine]; 3.6%

Hey, can you go through the list below and give me activation at 0.33 µM for every item?
1. CC1(C)S[C@@H]2[C@H](NC(=O)[C@H](N)c3ccc(O)cc3)C(=O)N2[C@H]1C(=O)O [Amoxicillin]
2. CN1CCN(C2=Nc3cc(Cl)ccc3Nc3ccccc32)CC1 [Clozapine]

**A:**
9.3%
82%

**Q:** Please give measured activation at 0.33 µM of the following entry: Clc1ccc2c(c1)C(N1CCNCC1)=Nc1ccccc1O2 [Amoxapine]
**A:** -7.8%

###

Tested on: hiPSC-derived neurons co-cultured with human primary astrocytes in 2D
Test: Ca2+ transient oscillation assay (FDSS), 2D co-culture
Format: cell-based
Conditions: Homo sapiens, 1 h; 3.7 µM; 60 min; read-out: Peak Number—2D Mean
Protocol: In this study, we used cryopreserved excitatory neurons that were differentiated from human induced pluripotent stem cells (hiPSCs; Cat #: EX-SeV-CW50065) (Elixirgen Scientific, Inc., Baltimore, MD, USA). […] Prior to the fluorescence measurements, all wells to be measured were treated with 0.04% dimethyl sulfoxide (DMSO) to stabilize the oscillation signal. […] The effects of the test compound were recorded again starting 60 min after the administration of compounds, for 20 min. […]
Please go through the items and note down their activation at 3.7 µM.
Give bare numbers, in %.

NS(=O)(=O)c1cc2c(cc1Cl)NC(C1CC3C=CC1C3)NS2(=O)=O (centres unmarked) [Cyclothiazide]; 2.7
NC(=O)N1c2ccccc2C=Cc2ccccc21 [Carbamazepine]; -15.3
O=C1NC(=O)C(c2ccccc2)(c2ccccc2)N1 [Phenytoin]; -33.5
CC(=O)Oc1ccccc1C(=O)O [Aspirin]; -10.2

**Q:** Consider the molecule NCCc1c[nH]c2ccc(O)cc12 [Serotonin] tested on hiPSC-derived neurons co-cultured with human primary astrocytes in 2D; state its activation at 3.7 µM.
**A:** -23.4

###

tested on: hiPSC-derived neurons co-cultured with human primary astrocytes in 3D; experiment: Ca2+ transient oscillation assay (FDSS), 3D spheroids; type: cell-based; conditions: 11.11 µM; 60 min
For each of the compounds below, state its Peak amplitude - 3D Mean.
Answers are plain numbers, in % change from baseline.

Use these answered entries as a reference point.
CC(=O)OCC[N+](C)(C)C; 90.9
NCCc1c[nH]c2ccc(O)cc12; 33.7
CC(=O)Oc1ccccc1C(=O)O; 138.1

For each of the items listed, what is its Peak amplitude - 3D Mean?
1. NS(=O)(=O)c1cc2c(cc1Cl)NC(C1CC3C=CC1C3)NS2(=O)=O (stereo not shown) [Cyclothiazide]
2. Cn1c(=O)c2[nH]cnc2n(C)c1=O
3. NC(=O)N1c2ccccc2C=Cc2ccccc21 [Carbamazepine]
4. O=C1NC(=O)C(c2ccccc2)(c2ccccc2)N1

**A:**
[139.0, 121.2, 114.1, 110.4]

###

tested on: hiPSC-derived neurons co-cultured with human primary astrocytes in 2D; assay: Ca2+ transient oscillation assay (FDSS), 2D co-culture; format: cell-based; conditions: Homo sapiens, 1 h; 3.7 µM; 60 min; read-out: Area under the curve - 2D Mean
result.type: activation at 3.7 µM (%)
One number for each entry, in %.

NS(=O)(=O)c1cc2c(cc1Cl)NC(C1CC3C=CC1C3)NS2(=O)=O (centres unmarked) [Cyclothiazide]; 48
NCCc1c[nH]c2ccc(O)cc12; 12.8
O=C1NC(=O)C(c2ccccc2)(c2ccccc2)N1; 33.2
CC(=O)Oc1ccccc1C(=O)O; 48.5

**Q:** Identify measured activation at 3.7 µM associated with NC(=O)N1c2ccccc2C=Cc2ccccc21 [Carbamazepine]
**A:** 31.5

###

test system: hiPSC-derived neurons co-cultured with human primary astrocytes in 2D; experiment: Ca2+ transient oscillation assay (FDSS), 2D co-culture; assay type: cell-based; conditions: Homo sapiens, 1 h; 100 µM; 60 min; read-out: Peak-to-peak interval - 2D Mean
result.type: activation at 100 µM
The answer consists of two parts: a number and, after it, its unit.

Would you mind listing activation at 100 µM for each of the following molecules?
1. NCCc1c[nH]c2ccc(O)cc12
2. Cn1c(=O)c2[nH]cnc2n(C)c1=O
3. NS(=O)(=O)c1cc2c(cc1Cl)NC(C1CC3C=CC1C3)NS2(=O)=O (stereo not shown) [Cyclothiazide]
4. CC(=O)Oc1ccccc1C(=O)O
5. NC(=O)N1c2ccccc2C=Cc2ccccc21 [Carbamazepine]
6. O=C1NC(=O)C(c2ccccc2)(c2ccccc2)N1
7. CC(=O)OCC[N+](C)(C)C

**A:**
55.3%
-26.3%
-70.3%
-17%
-100%
44.5%
11.3%

###

system: hiPSC-derived neurons co-cultured with human primary astrocytes in 2D; experiment: Ca2+ transient oscillation assay (FDSS), 2D co-culture; type: cell-based; details: Homo sapiens, 1 h; 33.33 µM; 60 min; read-out: Peak width - 2D Mean
result.type: activation at 33.33 µM (%)
One number for each entry, in %.

The cases that follow already have their activation at 33.33 µM on record.
NC(=O)N1c2ccccc2C=Cc2ccccc21 [Carbamazepine]; -36.7
CC(=O)Oc1ccccc1C(=O)O; 38.3
NCCc1c[nH]c2ccc(O)cc12; -1.4
Cn1c(=O)c2[nH]cnc2n(C)c1=O; 31.2
O=C1NC(=O)C(c2ccccc2)(c2ccccc2)N1; 17

Please look at the items below and tell me activation at 33.33 µM for each one, in order.
1. NS(=O)(=O)c1cc2c(cc1Cl)NC(C1CC3C=CC1C3)NS2(=O)=O (stereo not shown) [Cyclothiazide]
2. CC(=O)OCC[N+](C)(C)C

**A:**
1. 208
2. 16.2

###

Give activation at 0.33 µM for every item shown.
tested on: hiPSC-derived neurons co-cultured with human primary astrocytes in 2D; test: Ca2+ transient oscillation assay (FDSS), 2D co-culture; assay type: cell-based; settings: Homo sapiens, 1 h; 0.33 µM; 60 min; read-out: Peak amplitude - 2D Mean
Give bare numbers, in %.

Clc1ccc2c(c1)C(N1CCNCC1)=Nc1ccccc1O2; 12.7

For each of the items listed, what is its activation at 0.33 µM?
1. CC1(C)S[C@@H]2[C@H](NC(=O)[C@H](N)c3ccc(O)cc3)C(=O)N2[C@H]1C(=O)O
2. C[C@]12N[C@H](Cc3ccccc31)c1ccccc12
3. CN(C)CCCN1c2ccccc2Sc2ccc(Cl)cc21
4. NCCCC(=O)O
5. CN1CCN(C2=Nc3cc(Cl)ccc3Nc3ccccc32)CC1

**A:**
5
-63.6
4
5.7
9.4

###

test system: hiPSC-derived neurons co-cultured with human primary astrocytes in 3D; assay: Ca2+ transient oscillation assay (FDSS), 3D spheroids; format: cell-based; settings: 0.37 µM; 60 min
Lab note - cut at -10 % change from baseline for Peak Number—3D Mean: rule met if strictly below, rule not met if not.

Past entries and their recorded results:
CCn1cc(C(=O)O)c(=O)c2cc(F)c(N3CCNCC3)nc21; rule met
CCN(CC)CCCC(C)Nc1c2ccc(Cl)cc2nc2ccc(OC)cc12 (stereo not drawn); rule not met
C=C(C)[C@H]1CN[C@H](C(=O)O)[C@H]1CC(=O)O; rule not met
CN1CCc2cc3c(cc2[C@H]1[C@@H]1OC(=O)c2c1ccc1c2OCO1)OCO3; rule met
CNCCCC12CCC(c3ccccc31)c1ccccc12; rule met

**Q:** Identify whether the molecule Nc1ccncc1 records Peak Number—3D Mean below -10 % change from baseline.
**A:** rule not met

**Q:** Peak Number—3D Mean strictly < -10 % change from baseline for this molecule? CC[C@@H]1C(=O)OC[C@@H]1Cc1cncn1C
**A:** rule not met

**Q:** Dear colleague, could you confirm whether Peak Number—3D Mean of CC(NC(C)(C)C)C(=O)c1cccc(Cl)c1 (stereo not drawn) falls below -10 % change from baseline? Thanks.
**A:** rule not met

**Q:** Lab log: compare recorded Peak Number—3D Mean with -10 % change from baseline; is it strictly lower for Cc1ccc(Nc2nccc(N(C)c3ccc4c(C)n(C)nc4c3)n2)cc1S(N)(=O)=O ?
**A:** rule not met
